Target: Histones
Assay: AtheNA, Ab 25 ug/ml
# key: entry, value: Athena reading (relative luminescence units)
Simply state the number, no unit and no words.

Solved entries (count: 4):
>  <binder>
CH240_4A/293i (antibody, from a related filing, V domains shown) VH: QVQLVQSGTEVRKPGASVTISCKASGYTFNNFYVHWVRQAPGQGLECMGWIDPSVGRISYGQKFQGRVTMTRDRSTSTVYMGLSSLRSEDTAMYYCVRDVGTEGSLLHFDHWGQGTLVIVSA VL: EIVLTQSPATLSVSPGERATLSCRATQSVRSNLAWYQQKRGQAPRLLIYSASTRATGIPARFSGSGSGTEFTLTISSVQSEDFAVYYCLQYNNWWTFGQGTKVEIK

>  <quantitative-readout>
27

$$$$
>  <binder>
CH235_4A (antibody, from a related filing, V domains shown) VH: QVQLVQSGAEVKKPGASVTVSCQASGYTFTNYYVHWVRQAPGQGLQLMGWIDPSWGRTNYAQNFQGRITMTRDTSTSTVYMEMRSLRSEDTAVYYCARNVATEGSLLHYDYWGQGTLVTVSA VL: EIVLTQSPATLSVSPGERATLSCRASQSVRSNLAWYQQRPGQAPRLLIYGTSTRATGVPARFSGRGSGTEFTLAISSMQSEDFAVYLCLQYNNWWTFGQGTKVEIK

>  <quantitative-readout>
7

$$$$
>  <binder>
CH241 (antibody, from a related filing, V domains shown) VH: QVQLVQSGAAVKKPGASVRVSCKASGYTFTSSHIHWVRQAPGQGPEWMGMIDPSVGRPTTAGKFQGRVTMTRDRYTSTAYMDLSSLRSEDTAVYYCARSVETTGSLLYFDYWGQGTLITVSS VL: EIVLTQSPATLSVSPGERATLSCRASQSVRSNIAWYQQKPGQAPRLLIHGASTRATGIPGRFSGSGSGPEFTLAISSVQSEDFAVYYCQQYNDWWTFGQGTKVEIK

>  <quantitative-readout>
20

$$$$
>  <binder>
CH236_4A/293i (antibody, from a related filing, V domains shown) VH: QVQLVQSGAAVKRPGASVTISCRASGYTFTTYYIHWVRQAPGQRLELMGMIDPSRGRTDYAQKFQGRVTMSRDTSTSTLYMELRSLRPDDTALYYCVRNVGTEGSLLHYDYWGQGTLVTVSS VL: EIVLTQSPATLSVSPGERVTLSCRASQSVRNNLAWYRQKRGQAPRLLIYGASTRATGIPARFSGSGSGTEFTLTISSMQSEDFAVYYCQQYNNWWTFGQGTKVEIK

>  <quantitative-readout>
193

$$$$

Could you now look at the following binder, please?
The binder listed as CH239_4A/293i (antibody, from a related filing, V domains shown) VH: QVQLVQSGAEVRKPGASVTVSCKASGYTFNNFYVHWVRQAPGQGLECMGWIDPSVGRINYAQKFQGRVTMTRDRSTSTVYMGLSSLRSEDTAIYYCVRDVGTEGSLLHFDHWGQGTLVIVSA VL: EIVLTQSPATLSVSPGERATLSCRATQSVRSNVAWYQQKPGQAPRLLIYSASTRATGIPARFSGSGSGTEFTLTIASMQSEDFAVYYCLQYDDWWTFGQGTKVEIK shows Athena reading (relative luminescence units) equal to 253
